- Test system: NCI/ADR-RES
- test description: NCI tumour cell line growth inhibition, 48 h
Activity calls are given as the source filed them. Rule as the data show it: active = GI50 up to about 1.1 µM and inactive = higher.
readout kind: GI50

N#CC1(C#N)C2C=CC(C3CC=CC32)C1(C#N)C#N (centres undefined) ... 12.9 µM (inactive)
COc1ccc(CCN2C(=O)C=CC2=O)cc1OC ... 25.4 µM (inactive)
CC(=O)OCC1OC(n2c(-c3ccccc3)c(/N=N/c3ccc(C)cc3)c(C)c(C#N)c2=S)C(OC(C)=O)C(OC(C)=O)C1OC(C)=O (centres undefined) ... 7.35 µM (inactive)
N=C1/C(=C/c2ccc(F)cc2)C(=O)N=C2SC=NN12 ... > 100 µM (inactive)

* * *

- Tested on: HOP-62
- test description: NCI tumour cell line growth inhibition, 48 h
Activity calls are given as the source filed them. Cut-off read from the data, not from the text of the source: active = GI50 up to about 1.1 µM and inactive = higher. Non-standard residues stand in square brackets, D forms with d. Residues, ends and D or L forms follow the SMILES beside them. *: point of attachment. X30 = COC1=CC(=O)N(C(=O)[C@@H](O*)C(C)C)[C@H]1Cc1ccccc1; NMeL = CN[C@@H](CC(C)C)C(=O)O; Cbz = O=C(OCc1ccccc1)*
readout kind: GI50

C=C1C(=O)C23C(O)C1CC[C@H]2C12CCCC(C)(COC(C)=O)[C@H]1[C@H](O)[C@]3(O)OC2 (some centres not stated) ... 3.09 µM (inactive)
C[C@@H](NC1CCC[C@@H]1O)c1ccccc1 (some centres not stated) ... > 100 µM (inactive)
COc1ccc(CSC2=C(C#N)C(=O)NC3(CCCCC3)S2)cc1 ... 61.8 µM (inactive)
CCN(CC)CC1CCCCCCCCCCC1=O (configuration not stated) ... > 100 µM (inactive)
COc1cccc(C2c3cc4c(cc3OC(NNC(N)=O)C2C)OCO4)c1O (configuration not stated) ... 1.35 µM (inactive)
COC1=CC(=O)N(C(=O)[C@@H](OC(=O)[C@@H]2CCCN2C(=O)[C@@H]2CCCN2C(=O)[C@H](CC(C)C)N(C)C(=O)[C@@H](NC(=O)[C@@H](NC(=O)OCc2ccccc2)C(C)C)C(C)C)C(C)C)[C@H]1Cc1ccccc1 (Cbz-VV[NMeL]PP-X30) ... 21.4 µM (inactive)
O=C1c2cc3c(cc2CC12Cc1cc4c(cc1C2)CCC4)CCC3 ... > 100 µM (inactive)
CC(C)CC(=O)NC(Nc1ccc(S(=O)(=O)Nc2ncccn2)cc1)(C(F)(F)F)C(F)(F)F ... > 100 µM (inactive)
Cc1ccc(S(=O)(=O)N/N=C2\C(=O)Nc3cc(O)c(C(=O)O)cc32)cc1 ... > 100 µM (inactive)
Cc1cc(C)c(C(=O)c2nnc3ccccc3c2N)c(C)c1 ... 13.6 µM (inactive)
CC(C)[C@@H]1C=C(c2ccccc2)c2ccccc2C1C(C#N)(C#N)C(C)C (some centres not stated) ... > 100 µM (inactive)
CN(NC(=O)/C(=C/c1ccc(Cl)cc1)NC(=O)c1ccccc1)c1cn[nH]c(=O)c1Cl ... 47 µM (inactive)
NC1=NS(=O)(=O)Nc2nc(-c3ccc([N+](=O)[O-])cc3)[nH]c21 ... > 100 µM (inactive)
COc1cc2c(cc1OC)C/C(=N\O)c1cc(OC)c(OC)cc1/C=C\2 ... 2.82 µM (inactive)
Cc1cccc(C)c1NC(=O)CCc1nnc2s/c(=C\c3ccc(N(C)C)cc3)c(=O)n12 ... > 100 µM (inactive)
SC1=C2CCCCCC2=NC2(CCCCCC2)S1 ... 31.7 µM (inactive)
CCOP(=O)(OCC)C(Cc1cn(S(=O)(=O)c2ccc(C)cc2)cn1)C(=O)O (configuration not stated) ... > 100 µM (inactive)
CCC1(CC)C(=O)OC(=O)C1(CC)CC ... > 100 µM (inactive)
O=S(=O)(O)Nc1ccc(-c2nc3ccccc3s2)cc1Cl ... > 100 µM (inactive)
O=C(Nc1ccc(F)cc1)c1cc2c(cc1Cl)Sc1nccn1S2(=O)=O ... 34.8 µM (inactive)
COC(=O)C1CCCN1C(=O)OC(C)(C)C (configuration not stated) ... > 100 µM (inactive)
O=C(Nc1ccc(/N=N/c2ccccc2)cc1)Sc1ccccc1C(=O)O ... > 100 µM (inactive)

* * *

- System: OVCAR-4
- test description: NCI tumour cell line growth inhibition, 48 h
Calls of active or inactive are those of the source. No stated cut-off is given here; in the data, active = GI50 up to about 1.1 µM and inactive = higher.
readout kind: GI50

COc1ccc2c(c1)CCCN2CCCCCCCCCCN(CCC(C)C)CCC(C)C ... 5.61 µM (inactive)
O=C(O/N=C1/CCCC/C1=C\c1ccccc1)c1ccc(Cl)cc1 ... 53 µM (inactive)
S=C1NCCN1C(=S)Nc1ccccc1 ... 21.9 µM (inactive)
Cc1ccc(S(=O)(=O)N/N=C\c2c3ccccc3[n+](C)c3ccccc23)cc1 ... 27.6 µM (inactive)
C/C(Cl)=N\OC(=O)Nc1ccccc1C(F)(F)F ... 13.8 µM (inactive)
CCCCS(=O)(=O)Nc1ccc(Nc2c3ccccc3nc3ccccc23)c(OC)c1 ... 5.6 µM (inactive)
CC(NNC(=O)c1ccncc1)c1ccccc1 (stereo not drawn) ... > 100 µM (inactive)
COC(=O)c1c2c(cc3c1CC1(Cc4cc5c(c(C=O)c4C1)CCC5)C3)CCC2 (stereo not drawn) ... > 100 µM (inactive)
CC(=O)c1cc2c3c(c1)c1cc4c(cc1c(=O)n3CC2)OCO4 ... 25.8 µM (inactive)
C[C@]12CC/C(=N\O)C=C1CC[C@@H]1C2CC[C@@]2(C)C1CC[C@@H]2OC1CCCCO1 (stereo partly drawn) ... 15.6 µM (inactive)
O=C(O/C=C\OC1CCCC1(c1ccccc1)c1ccccc1)c1ccccc1 (stereo not drawn) ... 3.15 µM (inactive)
O=[N+]([O-])c1cc(C2ON=C(c3ccccc3)N2C23CC4CC(CC(C4)C2)C3)ccc1Cl (stereo not drawn) ... > 100 µM (inactive)
CCCCCCC(=O)O[C@H]1CC[C@H]2[C@@H]3CCC4C/C(=N/NC(=O)c5cccc6c(=O)c7ccccc7[nH]c56)C=C(C)[C@]4(C)[C@H]3CC[C@]12C (stereo partly drawn) ... > 25 µM (inactive)
C[C@H]1CC(=O)C[C@@H]2CC[C@@H]3[C@H](CC[C@]4(C)C(OC(=O)c5cccc6c(=O)c7ccccc7[nH]c56)CC[C@@H]34)[C@]21C (stereo partly drawn) ... 26.1 µM (inactive)
COC(=O)NNc1c([N+](=O)[O-])cnn(-c2ccccc2)c1=O ... 2.07 µM (inactive)
Cc1cc2nc3ccccc3n2c2nc(N)ccc12 ... 44.9 µM (inactive)
CCOC(=O)C(=C=C=C(c1ccccc1)c1ccccc1)C(=O)OCC ... 18.3 µM (inactive)
CC1=NN(c2nc(N)nc(/C(C#N)=C\C3COc4ccccc4C3=O)n2)C(C)(C)C1 (stereo not drawn) ... 34 µM (inactive)
O=c1c2c3c(sc2nc2n1N=C(c1ccc([N+](=O)[O-])cc1)CS2)CCCC3 ... > 100 µM (inactive)
CC(=O)OC12CCCCC1C1(CCCC1)NC2=O (stereo not drawn) ... > 100 µM (inactive)
CCC(C)(O)c1cn(-c2ccc(Cl)cc2)nn1 (stereo not drawn) ... > 100 µM (inactive)
CC(=O)O[C@H]1C(=O)[C@]2(C)[C@@H](OC(=O)OCCC(O)CO)C[C@H]3OC[C@@]3(OC(C)=O)[C@H]2[C@H](OC(=O)c2ccccc2)[C@]2(O)C[C@H](OC(=O)[C@H](O)[C@@H](NC(=O)c3ccccc3)c3ccccc3)C(C)=C1C2(C)C (stereo partly drawn) ... 13.9 µM (inactive)
CC(C)(C)C(=O)c1c(O)c2ccccc2c2ccccc2c1=O ... 62.1 µM (inactive)
COc1nc2c(c(=O)[nH]1)N=C(c1ccc(Cl)cc1)CC(c1ccccc1)N2 (stereo not drawn) ... 22.7 µM (inactive)
CC(C)c1cc(C(C)C)c(B(c2ccccc2)c2ccccc2)c(C(C)C)c1B(c1ccccc1)c1ccccc1 ... > 100 µM (inactive)
CN1CCC2(CC1)/C(=N/C1CCCCC1)NC(=S)N2c1ccccc1 ... > 100 µM (inactive)
CCOC(=O)Cc1[nH]c(C(=O)c2ccccc2)cc1C(=O)c1ccccc1 ... 18.3 µM (inactive)
CN(NC(=O)/C(=C/c1ccc(Cl)cc1)NC(=O)c1ccccc1)c1cn[nH]c(=O)c1Cl ... > 100 µM (inactive)

* * *

- Test system: KM12
- test description: NCI tumour cell line growth inhibition, 48 h
The source made the active and inactive calls. Rule as the data show it: active = GI50 up to about 1.1 µM and inactive = higher.
Classes used: active, inactive

CN(C)CCCNC(=O)c1cc(NC(=O)c2cc(NS(=O)(=O)c3ccc4c(c3)C(=O)c3ccccc3C4=O)cn2C)cn1C ... inactive
NC1=NS(=O)(=O)Nc2nc(-c3ccc([N+](=O)[O-])cc3)[nH]c21 ... inactive
FC(F)(F)C1(Cl)C(Cl)(c2ccccc2)C1(Cl)c1ccccc1 (centres undefined) ... inactive
O=C(OCc1ccccc1)N(CCCCN(CCCNC(=O)C(F)(F)F)C(=O)OCc1ccccc1)CCCNC(=O)C(F)(F)F ... inactive
COc1cccc(/C=N/n2c(Cc3ccccc3)n[nH]c2=O)c1 ... inactive
CN1CCC2(CC1)/C(=N/C1CCCCC1)NC(=S)N2c1ccccc1 ... inactive
CC[C@@]1(O)CC(OC2CC(N3CCOCC3)C(O)C(C)O2)c2c(O)c3c(c(O)c2[C@H]1O)C(=O)c1cccc(O)c1C3=O (some centres undefined) ... active
CC(=O)c1cc2c3c(c1)c1cc4c(cc1c(=O)n3CC2)OCO4 ... inactive
OCc1ccc2c(c1)CC1(Cc3ccc(/C=N/O)cc3C1)C2 (centres undefined) ... inactive
O=[N+]([O-])c1cc(C2ON=C(c3ccccc3)N2C23CC4CC(CC(C4)C2)C3)ccc1Cl (centres undefined) ... inactive
CC(=O)NC1CC2Oc3ccc(C)cc3C(C)(O2)C1O (centres undefined) ... inactive
Cc1cn(C2CC(N(O)Cc3ccccc3)C(CO)O2)c(=O)[nH]c1=O (centres undefined) ... inactive
NS(=O)(=O)c1nnc(NC(=O)C23CC4CC(CC(C4)C2)C3)s1 ... inactive
COC(=O)C1=C(OC(=O)/C=C/c2ccc(Cl)cc2)C(C(=O)OC)[C@]2(O)[C@@H](C(=O)OC)[C@H]1C[C@@H](c1ccccc1)[C@@H]2C(=O)OC (some centres undefined) ... inactive
COc1ccc2c(c1)C(=O)CC(C(N)=O)C2 (centres undefined) ... inactive
C=C(Br)C(C)(Cl)CCC(Br)C(C)(C)Cl (centres undefined) ... inactive
O=CN1CCN(c2ccc3ccc(O)nc3n2)CC1 ... inactive
CCCCCCOc1ccc(C(=O)N(C)O)cc1 ... inactive
C=COC(=O)N1C2CCCC(Cl)(C(C)=O)C1CC2 (centres undefined) ... inactive
CCC(C)[C@H]1C(=O)N=C(N)N1C(=O)OCc1ccccc1 (some centres undefined) ... inactive
Cc1ccc(P(c2ccc(C)cc2)c2ccc(C)cc2)cc1 ... inactive
O=C1N(C2CCCCC2)C(=O)N1C1CCCCC1 ... active
Cc1cc(Br)cc(C)c1NC(=O)C(=O)C(C(=O)c1ccncc1)C1OC(=O)c2ccccc21 (centres undefined) ... inactive
CSc1nc(NCc2ccccc2)c2cnn(COCCO)c2n1 ... inactive
COC(=O)c1c2c(cc3c1CC1(Cc4cc5c(c(C(C)=O)c4C1)CCCC5)C3)CCCC2 (centres undefined) ... inactive
COc1cccc2c(NNc3ccc(Cl)cc3)c3ccc([N+](=O)[O-])cc3nc12 ... inactive
CC1NCCc2c1[nH]c1cc(O)ccc21 (centres undefined) ... inactive
CCOC(=O)CNC(=O)C(C)NC(=O)C(NC(=O)CC(c1ncc[nH]1)c1ncc[nH]1)C(C)CC (centres undefined) ... inactive
COC1CC(OC2CCC3(C)C(=CCC4C3C(OC(C)=O)C(OC(=O)CC(C)C)C3(C)C(C(C)=O)CCC43O)C2)OC(C)C1OC1CC(OC)C(OC2CC(OC)C(OC3OC(C)C(OC4OC(CO)C(O)C(O)C4O)C(OC)C3O)C(C)O2)C(C)O1 (centres undefined) ... inactive
